Data provenance: ChEMBL document CHEMBL1127571

Experiment: Vm value of the compound
Format: ADME
assay.endpoint: Vm

[[record]]
compound = "NC(CCC(=O)NC(CSC(=O)N(O)c1ccc(Br)cc1)C(=O)NCC(=O)O)C(=O)O (stereo not drawn)"
result_value = "2.1e-05"


1: NC(CCC(=O)NC(CSC(=O)N(O)c1ccc(Cl)cc1)C(=O)NCC(=O)O)C(=O)O (stereo not drawn)
2: NC(CCC(=O)NC(CSC(=O)N(O)c1ccccc1)C(=O)NCC(=O)O)C(=O)O (stereo not drawn)
INPUT: Quick one: lower Vm, 1 or 2 ? Answer by stating the label of the chosen item.
OUTPUT: 2
(2: 4.6e-06, 1: 1.5e-05)
